Attribution: paper PMC9945865

# measurementDescription: Cytotoxicity on HUVECs, trypan blue exclusion assay
# Type: cell-based, human
# cond: human, HUVEC cells, % of control, p > 0.05 vs control, read-out: Cell viability of HUVECs
# Description: The biocompatibility of flavones (1 and 2)[30] alongside their ruthenium(II) metal complexes (1Ru and 2Ru) with HUVEC cells was established using the trypan blue exclusion assay. […] Cytotoxic activity of treatments on HUVECs using trypan blue exclusion assay.[55] […] 50 μL aliquots of the cell suspension were mixed with equal volume of trypan blue (TB) 0.2% v/v (prepared from 0.4% TB diluted with PBS) then the cells were counted using a haemocytometer. […]
Each entry below carries its recorded viability at 24 h, 40 µM.

structureSmiles: Oc1cc(O)c2c(=S)cc(-c3ccc(Cl)cc3)oc2c1
viability at 24 h, 40 µM: ~100%

Here's the next entry for you.
For O=c1cc(-c2ccc(Cl)cc2)oc2cc(O)cc(O)c12 the compound record lists viability at 24 h, 40 µM as ~100%
